FYI, the data here is from patent US8835632B2.

assay: Absorption and fluorescence spectra, extinction coefficient, fluorescence quantum yield; assay type: physicochemical; conditions: Table 15, CH3CN
Lab note: anything with Observed emission λmax at or over 600 nm counts as class 1; the rest go in class 0.

Sample answers from the record:
Compound | Label
C[n+]1ccc(/C=C/C2=C([O-])c3ccccc3S2(=O)=O)cc1 [P-SO(2)] | class 0
C[n+]1ccc(/C=C/C=C/C2=C([O-])c3ccccc3S2(=O)=O)cc1 [P-SO(4)] | class 1
CC1(C)c2ccccc2-[n+]2ccc(/C=C/C=C/C3=C(O)c4ccccc4S3(=O)=O)cc21 [AI-SO] | class 1

QUERY: Please indicate if the recorded Observed emission λmax for CC1(C)c2ccccc2-[n+]2ccc(/C=C/C3=C([O-])c4ccccc4S3(=O)=O)cc21 [AI-SO(2)] meets or exceeds 600 nm.
RESULT: class 0

QUERY: And the next one, Cn1c([O-])c(/C=C/C=C/c2cc[n+]3c(c2)C(C)(C)c2ccccc2-3)c(=O)n(C)c1=O [AI-BA] ?
RESULT: class 1

* * *

assay: Absorption and fluorescence spectra, extinction coefficient, fluorescence quantum yield; format: physicochemical; conditions: Table 15, BuOH
Hi there, I'd appreciate the recorded Observed emission λmax for every entry that follows.
Give bare numbers, in nm.

Molecule | Result Number
CCN1C(=O)\C(=C/C=C/C=C2/N(C)c3ccccc3C2(C)C)C(O)N(CC)C1=S (stereo not drawn) [I-TBA, reference compound] | 609
CC1(C)c2ccccc2-[n+]2ccc(/C=C/C=C/C3=C(O)c4ccccc4S3(=O)=O)cc21 | 675

Field: next molecule
QUERY: Give its Observed emission λmax value. Item: CN1/C(=C/C=C/C=C2/C(=O)c3ccccc3S2(=O)=O)C(C)(C)c2ccccc21 [I-SO, reference compound]
RESULT: 618

* * *

assay: Absorption and fluorescence spectra, extinction coefficient, fluorescence quantum yield; format: physicochemical; conditions: Table 10, CH3CN
Endpoint Name: Observed absorption λmax (nm)
Numbers only, in nm.

List reported Observed absorption λmax for each of these molecules:
1. CC1(C)c2ccccc2-[n+]2ccc(/C=C/C=C/C3=C(O)c4ccccc4S3(=O)=O)cc21
2. C[n+]1ccc(/C=C/C2=C([O-])c3ccccc3S2(=O)=O)cc1
3. C[n+]1ccc(/C=C/C=C/C2=C([O-])c3ccccc3S2(=O)=O)cc1
4. CC1(C)c2ccccc2-[n+]2ccc(/C=C/C3=C([O-])c4ccccc4S3(=O)=O)cc21
5. Cn1c([O-])c(/C=C/C=C/c2cc[n+]3c(c2)C(C)(C)c2ccccc2-3)c(=O)n(C)c1=O

RESULT:
[642, 546, 596, 549, 621]

QUERY: Param item = CCn1c([O-])c(/C=C/C=C/c2cc[n+]3c(c2)C(C)(C)c2ccccc2-3)c(=O)n(CC)c1=S ; retrieve measured Observed absorption λmax.
RESULT: 615

* * *

experiment: Absorption and fluorescence spectra, extinction coefficient, fluorescence quantum yield; assay type: physicochemical; conditions: Table 15, BuOH
Kindly apply the following: yes if Observed emission (Φ) is less than 0.2, no in every other case.

Some solved cases for reference:
Compound | Label
CCN1C(=O)\C(=C/C=C/C=C2/N(C)c3ccccc3C2(C)C)C(O)N(CC)C1=S (stereo not shown) [I-TBA, reference compound] | no
Cn1c([O-])c(/C=C/C=C/c2cc[n+]3c(c2)C(C)(C)c2ccccc2-3)c(=O)n(C)c1=O [AI-BA] | no
C[n+]1ccc(/C=C/C2=C([O-])c3ccccc3S2(=O)=O)cc1 [P-SO(2)] | yes
CC1(C)c2ccccc2-[n+]2ccc(/C=C/C=C/C3=C(O)c4ccccc4S3(=O)=O)cc21 [AI-SO] | no
CC1(C)c2ccccc2-[n+]2ccc(/C=C/C3=C([O-])c4ccccc4S3(=O)=O)cc21 [AI-SO(2)] | yes

QUERY: I wonder whether CN1/C(=C/C=C/C=C2/C(=O)c3ccccc3S2(=O)=O)C(C)(C)c2ccccc21 [I-SO, reference compound] has Observed emission (Φ) below 0.2. Can you tell?
RESULT: no

QUERY: Check C[n+]1ccc(/C=C/C=C/C2=C([O-])c3ccccc3S2(=O)=O)cc1 [P-SO(4)] too.
RESULT: yes

* * *

Assay: Absorption and fluorescence spectra, extinction coefficient, fluorescence quantum yield
Assay type: physicochemical
Conditions: Table 15, OcOH
Method: Absorption spectra were recorded on a Hewlett-Packard 8453 diode array UV-Vis spectrophotometer (Agilent Technologies, Inc., Santa Clara, Calif.), and fluorescence measurements were taken on a SPEX® Fluorolog 2 spectrofluorometer (HORIBA Jobin Yvon, Inc., Edison, N.J.). Melting points are not corrected. NMR spectra were obtained on a Varian Mercury 300 MHz (Varian, Inc., Palo Alto, Calif.) or on a Bruker 300 MHz DRX 300 spectrometer (Bruker Biospin Corp., Billerica, Mass.). […]
Please go through the items and note down their Observed emission (Φ).
Give bare numbers.

The examples below pair each entry with its known result.
Molecule | Endpoint Name | Result Number
C[n+]1ccc(/C=C/C=C/C2=C([O-])c3ccccc3S2(=O)=O)cc1 | Observed emission (Φ) | 0.082
CC1(C)c2ccccc2-[n+]2ccc(/C=C/C=C/C3=C(O)c4ccccc4S3(=O)=O)cc21 | Observed emission (Φ) | 0.88
CC1(C)c2ccccc2-[n+]2ccc(/C=C/C3=C([O-])c4ccccc4S3(=O)=O)cc21 | Observed emission (Φ) | 0.21

Dear reader, for each entry below, please note its Observed emission (Φ).
1. C[n+]1ccc(/C=C/C2=C([O-])c3ccccc3S2(=O)=O)cc1
2. Cn1c([O-])c(/C=C/C=C/c2cc[n+]3c(c2)C(C)(C)c2ccccc2-3)c(=O)n(C)c1=O
3. CCN1C(=O)\C(=C/C=C/C=C2/N(C)c3ccccc3C2(C)C)C(O)N(CC)C1=S (stereo not shown) [I-TBA, reference compound]
4. CN1/C(=C/C=C/C=C2/C(=O)c3ccccc3S2(=O)=O)C(C)(C)c2ccccc21 [I-SO, reference compound]

RESULT:
1. 0.024
2. 0.64
3. 0.99
4. 0.98

* * *

assay: Absorption and fluorescence spectra, extinction coefficient, fluorescence quantum yield; type: physicochemical; details: Table 15, OcOH
Endpoint Name: Observed emission λmax (nm)
Give bare numbers, in nm.

Compound | Result Number
C[n+]1ccc(/C=C/C=C/C2=C([O-])c3ccccc3S2(=O)=O)cc1 | 644
CN1/C(=C/C=C/C=C2/C(=O)c3ccccc3S2(=O)=O)C(C)(C)c2ccccc21 [I-SO, reference compound] | 617
CC1(C)c2ccccc2-[n+]2ccc(/C=C/C=C/C3=C(O)c4ccccc4S3(=O)=O)cc21 | 679

Continue with the compound presented below.
QUERY: Sample CC1(C)c2ccccc2-[n+]2ccc(/C=C/C3=C([O-])c4ccccc4S3(=O)=O)cc21 — what was its Observed emission λmax?
RESULT: 569

* * *

assay: Photobleaching under constant illumination from a halogen tungsten lamp filtered through glass; type: physicochemical; details: MeOH
Rule: kph * 10^6 (absolute rate of photobleaching) below 30 s^−1 gives condition met. Equal to or above 30 s^−1 gives condition not met.

Reference set (5 entries):
Molecule | Label
CN1/C(=C/C=C/C=C2/C(=O)c3ccccc3S2(=O)=O)C(C)(C)c2ccccc21 [I-SO, reference compound] | condition met
C[n+]1ccc(/C=C/C=C/C2=C([O-])c3ccccc3S2(=O)=O)cc1 [P-SO(4)] | condition met
CCN1C(=O)\C(=C/C=C/C=C2/N(C)c3ccccc3C2(C)C)C(O)N(CC)C1=S (stereo not drawn) [I-TBA, reference compound] | condition met
Cn1c([O-])c(/C=C/C=C/c2cc[n+]3c(c2)C(C)(C)c2ccccc2-3)c(=O)n(C)c1=O [AI-BA] | condition not met
CC1(C)c2ccccc2-[n+]2ccc(/C=C/C=C/C3=C(O)c4ccccc4S3(=O)=O)cc21 [AI-SO] | condition not met

Attention now shifts to the item below.
QUERY: Take the molecule CC1(C)c2ccccc2-[n+]2ccc(/C=C/C3=C([O-])c4ccccc4S3(=O)=O)cc21 [AI-SO(2)] and say whether its kph * 10^6 (absolute rate of photobleaching) is less than 30 s^−1.
RESULT: condition met

* * *

Please go through the items and note down their Extinction coefficient ε.
experiment: Absorption and fluorescence spectra, extinction coefficient, fluorescence quantum yield; type: physicochemical; details: Methanol (MeOH)
One number for each entry.

// known answers, use as guide
Compound | Extinction coefficient ε
CCn1c(O)c(/C=C/C=C(\C#N)c2cc[n+]3c(c2)C(C)(C)c2ccccc2-3)c(=O)n(CC)c1=S [AI-TBA-CN] | 146000
CCn1c([O-])c(/C=C/C=C/c2cc[n+]3c(c2)C(C)(C)c2ccccc2-3)c(=O)n(CC)c1=S [AI-TBA] | 38000
Cn1c(O)c(/C=C/C=C/c2cc[n+]3c(c2)C(C)(C)c2ccccc2-3)c(=O)n(C)c1=O [AI-BA] | 83000
Cn1c(O)c(/C=C/C=C(\C#N)c2cc[n+]3c(c2)C(C)(C)c2ccccc2-3)c(=O)n(C)c1=O [AI-BA-CN] | 180000
CC1(C)c2ccccc2-[n+]2ccc(/C(C#N)=C/C=C/C3=C(O)c4ccccc4S3(=O)=O)cc21 [AI-SO-CN] | 163000

// for each compound in input: emit Extinction coefficient ε
1. CC1(C)c2ccccc2-[n+]2ccc(/C=C/C=C/C3=C(O)c4ccccc4S3(=O)=O)cc21 [AI-SO]
2. CCN1/C(=C(C#N)/C=C/C=C2/C(=O)c3ccccc3S2(=O)=O)Sc2ccccc21 [S-SO-CN]
3. CN1/C(=C(C#N)/C=C/C=C2/C(=O)c3ccccc3S2(=O)=O)C(C)(C)c2ccccc21 [I-SO-CN]
4. CCN1/C(=C/C=C/C=C2/C(=O)c3ccccc3S2(=O)=O)Sc2ccccc21 [S-SO, reference compound]
5. CN1/C(=C/C=C/C=C2/C(=O)c3ccccc3S2(=O)=O)C(C)(C)c2ccccc21 [I-SO, reference compound]

RESULT:
[65000, 95000, 55000, 143000, 143000]
